# credit: patent US20120077957A1

Target: human melanocortin-4 receptor (recombinant hMC4-R) (human, UniProt P32245 1-332)
Sequence (P32245 whole entry): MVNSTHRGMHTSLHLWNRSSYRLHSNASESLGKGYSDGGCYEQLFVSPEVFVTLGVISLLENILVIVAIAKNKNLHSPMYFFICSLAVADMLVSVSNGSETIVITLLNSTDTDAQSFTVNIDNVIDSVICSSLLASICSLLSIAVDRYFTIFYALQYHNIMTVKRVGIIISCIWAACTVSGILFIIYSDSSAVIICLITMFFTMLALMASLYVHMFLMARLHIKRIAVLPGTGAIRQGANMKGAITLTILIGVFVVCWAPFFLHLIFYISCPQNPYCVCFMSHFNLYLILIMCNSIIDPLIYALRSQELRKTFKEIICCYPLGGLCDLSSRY
Assay: cell-based or functional assay
Numbered stars: 1 amine (or outer) side, 2 acyl side, 3 side chain; on linkers, the order of the positions; unused ones are H or OH. Bridge positions count the residues as written; N and C are the ends. Square brackets hold non-standard residues; d marks the D form. * marks the point of attachment. Pro(trans-4-NH2) = O=C([C@@H]1C[C@@H](N[*:3])CN1[*:1])[*:2]; Orn = NCCC[C@H](N)C(=O)O; Dab = NCC[C@H](N)C(=O)O; NHcPr = C1CC1N*

{"binder": "Ac-RDH[dF]RWK-OH (lactam 2-7) [Asp...Lys analog of peptides No. 3 and No. 37: Ac-Arg-cyclo(Asp-His-D-Phe-Arg-Trp-Lys)-OH]", "endpoint.unit": "%", "Emax (%), cAMP": 91}
{"binder": "Ac-RE[Orn](Ac)[dF]RW[Orn]-NH2 (lactam 2-7) [Peptide No. 33: Ac-Arg-cyclo(Glu-Orn(Acetyl)-D-Phe-Arg-Trp-Orn)-NH2]", "endpoint.unit": "%", "Emax (%), cAMP": 90}
{"binder": "Ac-RE[Dab][dF]RW[Orn]-OH (lactam 2-7) [Peptide No. 5: Ac-Arg-cyclo(Glu-Dab-D-Phe-Arg-Trp-Orn)-OH]", "endpoint.unit": "%", "Emax (%), cAMP": 94}
{"binder": "XEHFRWX (N-terminal acetyl; Nle at 1; D-Phe at 4; Orn at 7; side-chain lactam Glu2-Orn7; C-terminal -OH) [Peptide No. 1: Ac-Nle-cyclo(Glu-His-D-Phe-Arg-Trp-Orn)-OH]", "endpoint.unit": "%", "Emax (%), cAMP": 97}
{"binder": "XEHFRWX (N-terminal acetyl; Nle at 1; D-Phe at 4; Orn at 7; side-chain lactam Glu2-Orn7; C-terminal amide (-NH2)) [Peptide No. 2: Ac-Nle-cyclo(Glu-His-D-Phe-Arg-Trp-Orn)-NH2]", "endpoint.unit": "%", "Emax (%), cAMP": 93}
{"binder": "Ac-RDH[dF]RWK-NH2 (lactam 2-7) [Asp...Lys analog of peptides No. 4 and No. 38: Ac-Arg-cyclo(Asp-His-D-Phe-Arg-Trp-Lys)-NH2]", "endpoint.unit": "%", "Emax (%), cAMP": 83}
{"binder": "Ac-RD[Dab](Ac)[dF]RWK-NH2 (lactam 2-7; SMILES CC(=O)NCC[C@@H]1NC(=O)[C@@H](NC(=O)[C@H](CCCNC(=N)N)NC(C)=O)CC(=O)NCCCC[C@@H](C(N)=O)NC(=O)[C@H](Cc2c[nH]c3ccccc23)NC(=O)[C@H](CCCNC(=N)N)NC(=O)[C@@H](Cc2ccccc2)NC1=O) [Asp...Lys analog of peptide No. 18: Ac-Arg-cyclo(Asp-Dab(Acetyl)-D-Phe-Arg-Trp-Lys)-NH2]", "endpoint.unit": "%", "Emax (%), cAMP": 69}
{"binder": "Ac-REH[dF]RW[Orn]-NH2 (lactam 2-7) [Peptide No. 4: Ac-Arg-cyclo(Glu-His-D-Phe-Arg-Trp-Orn)-NH2]", "endpoint.unit": "%", "Emax (%), cAMP": 83}
{"binder": "Ac-RD[Pro(trans-4-NH2)][dF]RWK-NH2 (lactam 2-7, also called Peptide Structure (Asp...Lys) in the row of No. 32) [Asp...Lys analog of peptide No. 32: Ac-Arg-cyclo(Asp-Pro(4R-NH2)-D-Phe-Arg-Trp-Lys)-NH2]", "endpoint.unit": "%", "Emax (%), cAMP": 61}
{"binder": "Ac-REQ[dF]RW[Orn]-NHcPr (lactam 2-7) [Peptide No. 19: Ac-Arg-cyclo(Glu-Gln-D-Phe-Arg-Trp-Orn)-NH-cycProp]", "endpoint.unit": "%", "Emax (%), cAMP": 91}
{"binder": "Ac-RD[Dab][dF]RWK-NH2 (lactam 2-7) [Asp...Lys analog of peptides No. 6 and No. 43: Ac-Arg-cyclo(Asp-Dab-D-Phe-Arg-Trp-Lys)-NH2]", "endpoint.unit": "%", "Emax (%), cAMP": 91}
{"binder": "Ac-REQ[dF]RW[Orn]-OH (lactam 2-7) [Peptide No. 11: Ac-Arg-cyclo(Glu-Gln-D-Phe-Arg-Trp-Orn)-OH]", "endpoint.unit": "%", "Emax (%), cAMP": 81}
